Target: PAR2 (HT-29 cells, SLIGKV activation) (Homo sapiens, UniProt P55085)
Construct: host or cells: HT-29 cells
Sequence (P55085 26-397): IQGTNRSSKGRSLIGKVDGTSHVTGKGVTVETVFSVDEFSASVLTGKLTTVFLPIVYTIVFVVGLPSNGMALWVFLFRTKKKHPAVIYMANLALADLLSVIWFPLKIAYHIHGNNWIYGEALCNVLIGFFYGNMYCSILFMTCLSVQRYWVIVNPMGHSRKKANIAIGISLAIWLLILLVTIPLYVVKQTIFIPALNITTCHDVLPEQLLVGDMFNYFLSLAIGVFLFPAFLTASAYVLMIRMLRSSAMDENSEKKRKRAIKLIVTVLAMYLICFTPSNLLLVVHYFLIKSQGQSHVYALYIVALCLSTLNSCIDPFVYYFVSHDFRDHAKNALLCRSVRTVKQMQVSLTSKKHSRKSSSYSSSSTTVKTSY
Test: Ca FLIPR TETRA assay, ANTAGONIST mode, stimulation with 8 μM SLIGKV
Assay type: cell-based
Conditions: HT-29 cells, antagonist mode, stimulation with 8 μM SLIGKV
Cut-off 2 nM on IC50: below means true, at or above means false.

The following molecules have reported results that may help.
Cc1ccc(-c2cc(C(C)C)c3nc(C(=O)N4CCN(C(=O)c5ccn[nH]5)CC4(C)C)cn3n2)cc1 [Compound I-255]; false
Cc1n[nH]c(C(=O)N2CCN(C(=O)c3cn4nc(-c5ccc(F)c(Cl)c5)cc(C(C)(C)C)c4n3)C(C)(C)C2)n1 [Compound I-468]; true

State whether 2 nM exceeds IC50 recorded for CC(C)(C)c1cc(-c2ccc(F)cc2)nn2cc(C(=O)N3CCN(c4cc[nH]n4)C(=O)C3(C)C)nc12 [Compound I-471] .
true

State whether 2 nM exceeds IC50 recorded for CC(C)c1cc(-c2ccc(C(F)(F)F)c(F)c2)nn2cc(C(=O)N3CCN(C(=O)c4ccncn4)CC3(C)C)nc12 [Compound I-278] .
false

State whether 2 nM exceeds IC50 recorded for CC1(C)C(=O)NCCN1C(=O)c1cn2nc(-c3ccc(F)cc3)cc(-c3ccc(F)cc3)c2n1 [Compound I-523] .
false

State whether 2 nM exceeds IC50 recorded for CC(C)(C)c1cc(-c2ccc(F)c(Cl)c2)nn2cc(C(=O)N3CCN(C(=O)c4ccn[nH]4)CC3(C)C)nc12 [Compound I-459] .
true

State whether 2 nM exceeds IC50 recorded for Cc1cccc(-c2cc(C(C)(C)C)c3nc(C(=O)N4CCNC(=O)C4(C)C)cn3n2)c1 [Compound I-350] .
false

Origin of values: patent US20190119282A1
